Hi there, I'd appreciate the recorded inhibition for every entry that follows.
Target: Hexose transporter 1 (Plasmodium falciparum)
Assay: ST_JUDE_LEISH: Cytotoxicity at 2uM final concentration against transgenic Leishmania Mexicana promastigotes LmPfHT that are glucose transport deficient and complemented with the Plasmodium falciparum hexose transporter. Activity is measured by DNA content using SYBR green in vitro
Assay type: functional
The reply should contain only the number, in %.

Please provide the recorded inhibition for "COc1cccc(CNC(=O)c2cnc(N3CCN(c4ccncc4)CC3)c(Cl)c2)c1" , tested on Hexose transporter 1 (Plasmodium falciparum).
23.8

Please provide the recorded inhibition for "CS(=O)(=O)CCN(CCS(C)(=O)=O)Cc1ccc(-c2ccc3ncnc(Nc4ccc(OCc5cccc(F)c5)c(Cl)c4)c3c2)o1" , tested on Hexose transporter 1 (Plasmodium falciparum).
2.02

Please provide the recorded inhibition for "COc1ccc(CN2CCCN(Cc3cccc(C(=O)Nc4ccc(C)c(F)c4)c3)CC2)cc1" , tested on Hexose transporter 1 (Plasmodium falciparum).
-1.26

Please provide the recorded inhibition for "COc1c(C2CCN(CCCCNC(=O)c3oc(-c4ccc(Cl)cc4)cc3CO)CC2)ccc2c1CCCC2" , tested on Hexose transporter 1 (Plasmodium falciparum).
1.81

Please provide the recorded inhibition for "N#CCCN1CCN(Cc2ccc(-c3cccc(-c4nc5cc(F)ccc5[nH]4)c3)cc2)CC1" , tested on Hexose transporter 1 (Plasmodium falciparum).
2.18

Please provide the recorded inhibition for "O=S(=O)(c1cccc(Br)c1)N1CCCCC(c2ccc(C(F)(F)F)cc2)=N1" , tested on Hexose transporter 1 (Plasmodium falciparum).
3.68

Please provide the recorded inhibition for "CC[C@@]1(O)C(=O)OCc2c1cc1n(c2=O)Cc2c-1nc1cc3c(cc1c2CN1CCN(C)CC1)OCCO3" , tested on Hexose transporter 1 (Plasmodium falciparum).
15

Please provide the recorded inhibition for "O=C(Nc1ccc(N2CCN(c3ncccc3C(F)(F)F)CC2)nc1)c1cccs1" , tested on Hexose transporter 1 (Plasmodium falciparum).
3.03

Please provide the recorded inhibition for NCC1CCCN1Cc1ccc(-c2ccc(-c3nc4cc(C(F)(F)F)ccc4[nH]3)s2)cc1 (centres undefined) , tested on Hexose transporter 1 (Plasmodium falciparum).
-0.28
